# target: human NE transporter (hNET) (Homo sapiens, UniProt P23975)
# Sequence (P23975 whole entry): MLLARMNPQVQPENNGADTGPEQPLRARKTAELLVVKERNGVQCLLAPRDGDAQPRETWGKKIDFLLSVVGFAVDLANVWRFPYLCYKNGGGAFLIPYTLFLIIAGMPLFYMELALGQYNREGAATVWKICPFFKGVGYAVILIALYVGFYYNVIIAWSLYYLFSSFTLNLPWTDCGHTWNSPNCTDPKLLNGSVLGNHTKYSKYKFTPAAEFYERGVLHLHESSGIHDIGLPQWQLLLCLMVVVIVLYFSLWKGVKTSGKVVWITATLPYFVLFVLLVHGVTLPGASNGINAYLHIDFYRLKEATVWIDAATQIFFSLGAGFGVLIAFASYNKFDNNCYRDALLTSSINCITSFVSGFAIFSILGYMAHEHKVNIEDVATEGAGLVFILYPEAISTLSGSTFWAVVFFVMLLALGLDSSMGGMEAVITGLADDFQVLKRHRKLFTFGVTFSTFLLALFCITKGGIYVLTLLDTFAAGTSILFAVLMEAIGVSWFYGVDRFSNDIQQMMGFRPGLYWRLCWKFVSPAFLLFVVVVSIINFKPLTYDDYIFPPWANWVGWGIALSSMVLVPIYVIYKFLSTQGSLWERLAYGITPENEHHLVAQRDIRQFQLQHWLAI
# method: NE transporter competitive binding assay, [3H]nisoxetine
# settings: Example 4; read-out: Monoamine Transporter Affinity, NE, Ki
For each entry below, report its pKi value.
Numbers only, as −log10 of the molar value.

For the compound CNCC/C=C1\c2ccccc2C[C@H](O)c2ccccc21 (stereo in doubt) [(+)-E-10-OH-NT] , what pKi is on record?
7.28

In the following, a different compound is considered.
So what's the measured pKi for this one? CNCC/C=C1\c2ccccc2C[C@@H](O)c2ccccc21 (stereo in doubt) [(−)-E-10-OH-NT]
7.36

The origin of these recorded values is patent US20120178815A1.
